system: NCC-MFS5-C1; experiment: cell viability relative to DMSO control; higher = less growth inhibition; settings: 10 µM; treatment time: 3 days
Structures can show the parent of a compound that is named as a salt.
cell viability vs 90%: less than gives class 1; not less than gives class 0.

Here's what some known entries look like.
>>> classification("COc1cc2nccc(Oc3ccc(NC(=O)Nc4cc(C)on4)c(Cl)c3)c2cc1OC")
"class 1"
>>> classification("CC(=O)O[C@]1(C(C)=O)CC[C@H]2[C@@H]3C=C(C)C4=CC(=O)CC[C@]4(C)[C@H]3CC[C@@]21C [Megestrol Acetate]")
"class 0"
>>> classification("CCN1CCN(Cc2ccc(Nc3ncc(F)c(-c4cc(F)c5nc(C)n(C(C)C)c5c4)n3)nc2)CC1 [Abemaciclib mesylate]")
"class 1"
>>> classification("CS(=O)(=O)OCCCCOS(C)(=O)=O")
"class 1"
>>> classification("COc1nc(N)nc2c1ncn2[C@@H]1O[C@H](CO)[C@@H](O)[C@@H]1O")
"class 0"
>>> classification("COc1ccc(/C=C/C(=O)Nc2ccccc2C(=O)O)cc1OC")
"class 1"
>>> classification("CCCCNc1ncc(-c2ccc(CN3CCOCC3)cn2)c(NC2CCC(O)CC2)n1 (configuration not stated)")
"class 1"
>>> classification("CCOC(=O)[C@H](CCc1ccccc1)N[C@H]1CS[C@H](c2cccs2)CN(CC(=O)O)C1=O [Temocapril HCl]")
"class 1"
>>> classification("Fc1ccc(C(c2ccc(F)cc2)N2CCN(C/C=C/c3ccccc3)CC2)cc1 [Flunarizine 2HCl]")
"class 0"
>>> classification("COc1ccc2[nH]c([S@@+]([O-])Cc3ncc(C)c(OC)c3C)nc2c1 [Esomeprazole Sodium]")
"class 1"

Does the reported cell viability of CCN(CC)CCOc1ccc(C(=C(Cl)c2ccccc2)c2ccccc2)cc1 [Clomifene citrate] stay below 90%? class 1

Does the reported cell viability of `FC(F)(F)c1ccc(/C=C/c2nc(COc3ccc(CCCCn4ccnn4)cc3)co2)cc1` stay below 90%? class 0

Does the reported cell viability of C=CC(=O)N1CCC(Oc2cc3c(Nc4ccc(Cl)c(Cl)c4F)ncnc3cc2OC)CC1 [Poziotinib (HM781-36B)] stay below 90%? class 1

Does the reported cell viability of `S=c1[nH]cnc2nc[nH]c12` stay below 90%? class 0

Does the reported cell viability of `CC(=O)OCC(CCn1cnc2cnc(N)nc21)COC(C)=O` stay below 90%? class 1
